- Test system: Caov-4 (Ovarian Carcinoma)
- assay_procedure: combination Emax (second highest fraction inhibited in the dose matrix, 72 h); higher = more inhibition; extreme values may be limits of the assay
quantity_measured: combination Emax
Give the figure by itself; no unit, no explanation.

{"compound": "CC(=O)Nc1cccc(-n2c(=O)n(C3CC3)c(=O)c3c(Nc4ccc(I)cc4F)n(C)c(=O)c(C)c32)c1 [Trametinib] + Cc1nc(-c2cn3c(n2)-c2ccc(-c4cnn(C(C)(C)C(N)=O)c4)cc2OCC3)n(C(C)C)n1 [Taselisib] (first compound max 1 µM, 7x7, partner max 10 µM)", "measured": 0.76}

Moving on to the next compound.
Per the record, CC1(C)CCC(CN2CCN(c3ccc(C(=O)NS(=O)(=O)c4ccc(NCC5CCOCC5)c([N+](=O)[O-])c4)c(Oc4cnc5[nH]ccc5c4)c3)CC2)=C(c2ccc(Cl)cc2)C1 [Venetoclax] + C1CN(CCC1(C(=O)N[C@@H](CCO)C2=CC=C(C=C2)Cl)N)C3=NC=NC4=C3C=CN4 [Capivasertib] (first compound max 1 µM, 7x7, partner max 3 µM) has combination Emax of 0.282

###

Overview of reported Bliss excess across a group of molecules:
- System: MIA-PaCa-2 (Pancreatic Carcinoma)
- assay_procedure: Bliss excess, mean over the matrix (fraction); higher = more synergy

{"molecule": "Cn1cnc2c(F)c(Nc3ccc(Br)cc3Cl)c(C(=O)NOCCO)cc21 [Selumetinib] + C[C@@H]1COCCN1C2=NC(=NC(=C2)C3(CC3)[S@](=N)(=O)C)C4=C5C=CNC5=NC=C4 [AZD6738] (first compound max 10 µM, 7x7, partner max 10 µM)", "Bliss excess": 0.0499}

Then this molecule:
Reported Bliss excess for CC(=O)c1c(C)c2cnc(Nc3ccc(N4CCNCC4)cn3)nc2n(C2CCCC2)c1=O [Palbociclib] + Cc1c2c(nn1C)CSCc1cc(n(C)n1)CSc1cc(c3ccccc3c1)OCCCc1c(C(=O)O)n(C)c3c-2c(Cl)ccc13 [AZD5991] (first compound max 10 µM, 7x7, partner max 1 µM) was 0.0265

###

- Test system: LU-65 (Non-Small Cell Lung Carcinoma)
- assay_procedure: combination Emax (second highest fraction inhibited in the dose matrix, 72 h); higher = more inhibition; extreme values may be limits of the assay
quantity_measured: combination Emax
The response must contain the number and no unit.

Record CN(C)CCCOc1ccc(-c2ccc3ncc4c(c3c2)n(C2CCOCC2)c(=O)n4C)cn1 [AZD0156] + O=C(c1cc(Cc2n[nH]c(=O)c3ccccc23)ccc1F)N1CCN(C(=O)C2CC2)CC1 [Olaparib] (first compound max 3 µM, partner max 3 µM) . Reported combination Emax: 0.268

###

- Test system: OE19 (Esophageal Adenocarcinoma)
- assay_procedure: Bliss excess, mean over the matrix (fraction); higher = more synergy
The following compounds are shown together with reported Bliss excess values.
Reply with the value as a number alone.

In the examples that follow, each entry is paired with its recorded Bliss excess.
{"compound": "CN(CCO)CC[C@H](CSc1ccccc1)Nc1ccc(S(=O)(=O)NC(=O)c2ccc(N3CCC([C@@H](O)c4ccccc4-c4ccc(Cl)cc4)CC3)cc2)cc1S(=O)(=O)C(F)(F)F [AZD4320] + C=CCn1c(=O)c2cnc(Nc3ccc(N4CCN(C)CC4)cc3)nc2n1-c1cccc(C(C)(C)O)n1 [AZD1775] (first compound max 1 µM, partner max 1 µM)", "Bliss excess": 0.0072}
{"compound": "CCN(CCO)CCCOc1ccc2c(Nc3cc(CC(=O)Nc4cccc(F)c4)[nH]n3)ncnc2c1 [AZD2811] + C=CCn1c(=O)c2cnc(Nc3ccc(N4CCN(C)CC4)cc3)nc2n1-c1cccc(C(C)(C)O)n1 [AZD1775] (first compound max 1 µM, partner max 1 µM)", "Bliss excess": -0.0152}
{"compound": "COc1cccc(OCCCN)c1-c1cc(Nc2cnc(C#N)cn2)n[nH]1 [Prexasertib] + Cc1cc2ncnn2cc1Nc1ncc2c(n1)n(C1CCOCC1)c(=O)n2C [AZD7648] (first compound max 1 µM, 7x7, partner max 10 µM)", "Bliss excess": -0.0291}

# Bliss excess of NC1(C(=O)N[C@@H](CCO)c2ccc(Cl)cc2)CCN(c2ncnc3[nH]ccc23)CC1 [Capivasertib] + COc1nnc2ccc(N3CCC(c4ccc(OCCN5CCN(C)C(=O)[C@H]5C)cc4)CC3)nn12 [AZD5153] (first compound max 10 µM, 7x7, partner max 1 µM) = 0.0561

###

Let's look at some molecules and their measured combination Emax.
- Test system: YH-13 (Glioblastoma)
- assay_procedure: combination Emax (second highest fraction inhibited in the dose matrix, 72 h); higher = more inhibition; extreme values may be limits of the assay
No unit in the answer, please; the number alone is enough.

Below, 2 molecules whose answers are already recorded.
{"molecule": "Cc1c2c(nn1C)CSCc1cc(n(C)n1)CSc1cc(c3ccccc3c1)OCCCc1c(C(=O)O)n(C)c3c-2c(Cl)ccc13 [AZD5991] + C[C@@H](Nc1cc(F)cc(F)c1)c1cc(C(=O)N(C)C)cc2c(=O)cc(N3CCOCC3)oc12 [AZD8186] (first compound max 1 µM, 7x7, partner max 3 µM)", "target_or_system": "YH-13 (Glioblastoma)", "measured": 0.585}
{"molecule": "C[C@@H](c1ccc2nccn2c1)n1nnc2ncc(-c3cnn(C)c3)nc21 [Savolitinib] + CC1(C)CCC(CN2CCN(c3ccc(C(=O)NS(=O)(=O)c4ccc(NCC5CCOCC5)c([N+](=O)[O-])c4)c(Oc4cnc5[nH]ccc5c4)c3)CC2)=C(c2ccc(Cl)cc2)C1 [Venetoclax] (first compound max 1 µM, 7x7, partner max 1 µM)", "target_or_system": "YH-13 (Glioblastoma)", "measured": 0.237}

Query molecule follows.
Value (combination Emax, YH-13 (Glioblastoma)) for record NC1(C(=O)N[C@@H](CCO)c2ccc(Cl)cc2)CCN(c2ncnc3[nH]ccc23)CC1 [Capivasertib] + C[C@@H]1COCCN1C2=NC(=NC(=C2)C3(CC3)[S@](=N)(=O)C)C4=C5C=CNC5=NC=C4 [AZD6738] (first compound max 10 µM, 7x7, partner max 10 µM) = 0.648

###

Reported combination Emax values for the following compounds.
- Test system: D-263MG (Glioblastoma)
- assay_procedure: combination Emax (second highest fraction inhibited in the dose matrix, 72 h); higher = more inhibition; extreme values may be limits of the assay
Form: value (number only, do not type unit).

Example entries and their recorded answers appear below.
{"compound": "Cc1c2c(nn1C)CSCc1cc(n(C)n1)CSc1cc(c3ccccc3c1)OCCCc1c(C(=O)O)n(C)c3c-2c(Cl)ccc13 [AZD5991] + CCN(CCO)CCCOc1ccc2c(Nc3cc(CC(=O)Nc4cccc(F)c4)[nH]n3)ncnc2c1 [AZD2811] (first compound max 1 µM, 7x7, partner max 1 µM)", "quantity_measured": "combination Emax", "measured": 0.994}
{"compound": "Cc1cc2ncnn2cc1Nc1ncc2c(n1)n(C1CCOCC1)c(=O)n2C [AZD7648] + COc1cc([C@@H]2c3cc4c(cc3[C@@H](O[C@@H]3O[C@@H]5CO[C@@H](C)O[C@H]5[C@H](O)[C@H]3O)[C@H]3COC(=O)[C@H]23)OCO4)cc(OC)c1O [Etoposide] (first compound max 10 µM, 7x7, partner max 10 µM)", "quantity_measured": "combination Emax", "measured": 0.618}
{"compound": "Cc1c2c(nn1C)CSCc1cc(n(C)n1)CSc1cc(c3ccccc3c1)OCCCc1c(C(=O)O)n(C)c3c-2c(Cl)ccc13 [AZD5991] + CC(=O)O[C@H]1C(=O)[C@@]2(C)[C@H]([C@H](OC(=O)c3ccccc3)[C@]3(O)C[C@H](OC(=O)[C@H](O)[C@@H](NC(=O)c4ccccc4)c4ccccc4)C(C)=C1C3(C)C)[C@]1(OC(C)=O)CO[C@@H]1C[C@@H]2O [Paclitaxel] (first compound max 1 µM, 7x7, partner max 3 µM)", "quantity_measured": "combination Emax", "measured": 1}
{"compound": "CC1(C)CCC(CN2CCN(c3ccc(C(=O)NS(=O)(=O)c4ccc(NCC5CCOCC5)c([N+](=O)[O-])c4)c(Oc4cnc5[nH]ccc5c4)c3)CC2)=C(c2ccc(Cl)cc2)C1 [Venetoclax] + C1CN(CCC1(C(=O)N[C@@H](CCO)C2=CC=C(C=C2)Cl)N)C3=NC=NC4=C3C=CN4 [Capivasertib] (first compound max 1 µM, 7x7, partner max 3 µM)", "quantity_measured": "combination Emax", "measured": 0.202}
{"compound": "Cc1cc2ncnn2cc1Nc1ncc2c(n1)n(C1CCOCC1)c(=O)n2C [AZD7648] + C=CCn1c(=O)c2cnc(Nc3ccc(N4CCN(C)CC4)cc3)nc2n1-c1cccc(C(C)(C)O)n1 [AZD1775] (first compound max 10 µM, partner max 1 µM)", "quantity_measured": "combination Emax", "measured": 0.392}
{"compound": "NC1(C(=O)N[C@@H](CCO)c2ccc(Cl)cc2)CCN(c2ncnc3[nH]ccc23)CC1 [Capivasertib] + Cn1cnc2c(F)c(Nc3ccc(Br)cc3Cl)c(C(=O)NOCCO)cc21 [Selumetinib] (first compound max 10 µM, 7x7, partner max 10 µM)", "quantity_measured": "combination Emax", "measured": 0.518}
{"compound": "Cc1c2c(nn1C)CSCc1cc(n(C)n1)CSc1cc(c3ccccc3c1)OCCCc1c(C(=O)O)n(C)c3c-2c(Cl)ccc13 [AZD5991] + C1CN(CCC1(C(=O)N[C@@H](CCO)C2=CC=C(C=C2)Cl)N)C3=NC=NC4=C3C=CN4 [Capivasertib] (first compound max 1 µM, 7x7, partner max 3 µM)", "quantity_measured": "combination Emax", "measured": 0.958}
{"compound": "COc1nnc2ccc(N3CCC(c4ccc(OCCN5CCN(C)C(=O)[C@H]5C)cc4)CC3)nn12 [AZD5153] + Cc1c2c(nn1C)CSCc1cc(n(C)n1)CSc1cc(c3ccccc3c1)OCCCc1c(C(=O)O)n(C)c3c-2c(Cl)ccc13 [AZD5991] (first compound max 1 µM, 7x7, partner max 1 µM)", "quantity_measured": "combination Emax", "measured": 0.98}
{"compound": "C=CCn1c(=O)c2cnc(Nc3ccc(N4CCN(C)CC4)cc3)nc2n1-c1cccc(C(C)(C)O)n1 [AZD1775] + O=C(c1cc(Cc2n[nH]c(=O)c3ccccc23)ccc1F)N1CCN(C(=O)C2CC2)CC1 [Olaparib] (first compound max 1 µM, partner max 10 µM)", "quantity_measured": "combination Emax", "measured": 0.447}
{"compound": "Cn1cnc2c(F)c(Nc3ccc(Br)cc3Cl)c(C(=O)NOCCO)cc21 [Selumetinib] + CCN(CCO)CCCOc1ccc2c(Nc3cc(CC(=O)Nc4cccc(F)c4)[nH]n3)ncnc2c1 [AZD2811] (first compound max 10 µM, 7x7, partner max 1 µM)", "quantity_measured": "combination Emax", "measured": 0.284}

# evaluate next
The recorded combination Emax for entry Cc1c2c(nn1C)CSCc1cc(n(C)n1)CSc1cc(c3ccccc3c1)OCCCc1c(C(=O)O)n(C)c3c-2c(Cl)ccc13 [AZD5991] + C[C@@H](Nc1cc(F)cc(F)c1)c1cc(C(=O)N(C)C)cc2c(=O)cc(N3CCOCC3)oc12 [AZD8186] (first compound max 1 µM, 7x7, partner max 3 µM) equals 0.975
